- Test system: wheat
- test-summary: Test B pre/postemergence wheat
- Type: in vivo, Triticum aestivum
- condition: Rate 500 g/ha, Preemergence; scale 0 to 10 (0 no effect, 10 complete control)
- Method: […] At the same time, these crop and weed species were also treated with postemergence applications of test chemicals formulated in the same manner. […] Treated plants and controls were maintained in a greenhouse for twelve to sixteen days, after which all species were compared to controls and visually evaluated. […]
value-kind: Wheat plant response rating
API doc: respond with a numeric literal and nothing else, no unit.

Input: Using known records, supply Wheat plant response rating for CC(C)N(C(=O)n1oc(=O)n(CC2=NOCCO2)c1=O)c1ccc(F)cc1
Output: 8

Input: Using known records, supply Wheat plant response rating for C#CCCn1c(=O)on(C(=O)N(c2ccc(F)cc2)C(C)C)c1=O
Output: 5

Input: Using known records, supply Wheat plant response rating for CC(C)N(C(=O)n1oc(=O)n(C(C)C2=NOCC2)c1=O)c1ccc(Cl)cc1 (racemic)
Output: 8

Input: Using known records, supply Wheat plant response rating for COC1CCC(Cn2c(=O)on(C(=O)N(c3ccc(F)cc3)C(C)C)c2=O)=NO1 (stereo not shown)
Output: 10

* * *

- Tested on: pigweed
- test-summary: Test B pre/postemergence pigweed
- Type: in vivo, Amaranthus retroflexus
- condition: Preemergence, Rate 250 g/ha; scale 0 to 10, 0 is no effect, 10 is complete control
value-kind: Redroot pigweed plant response rating

Input: Using known records, supply Redroot pigweed plant response rating for CC(C)N(C(=O)n1oc(=O)n(C(CF)CF)c1=O)c1ccccc1
Output: 10

Input: Using known records, supply Redroot pigweed plant response rating for CC(C)N(C(=O)n1oc(=O)n(COCC[Si](C)(C)C)c1=O)c1ccc(Cl)cc1
Output: 7

Input: Using known records, supply Redroot pigweed plant response rating for Cc1nc(Cl)sc1C(C)n1c(=O)on(C(=O)N(c2ccc(F)cc2F)C(C)C)c1=O (stereo not shown)
Output: 0

Input: Using known records, supply Redroot pigweed plant response rating for CC(C)N(C(=O)n1oc(=O)[nH]c1=O)c1ccc(F)cc1
Output: 0

Input: Using known records, supply Redroot pigweed plant response rating for CC(C)N(C(=O)n1oc(=O)n(C2CCCC(C(F)(F)F)C2)c1=O)c1ccc(F)cc1 (stereo not shown)
Output: 0

Input: Using known records, supply Redroot pigweed plant response rating for CCN(C(=O)n1oc(=O)n(N(C)c2ccccc2)c1=O)C1CCCCC1
Output: 0

Input: Using known records, supply Redroot pigweed plant response rating for CC(C)N(C(=O)n1oc(=O)n(CC2CCC2)c1=O)c1ccc(F)cc1
Output: 9

* * *

Exercise: for every item that follows, state its recorded Wild oats plant response rating.
- Tested on: wild oat
- test-summary: Test B pre/postemergence wild oat
- Type: in vivo, Avena fatua
- condition: Preemergence, Rate 500 g/ha; scale 0 to 10, 0 is no effect, 10 is complete control
API doc: respond with a numeric literal and nothing else, no unit.

Input: Report Wild oats plant response rating under test system wild oat for Cc1nc(Cl)sc1C(C)n1c(=O)on(C(=O)N(c2ccccc2)C(C)C)c1=O (stereo not shown) .
Output: 0

Input: Report Wild oats plant response rating under test system wild oat for CC[Si](C)(C)Cn1c(=O)on(C(=O)N(c2ccc(F)cc2)C(C)C)c1=O .
Output: 0

Input: Report Wild oats plant response rating under test system wild oat for C=CC(OC)n1c(=O)on(C(=O)N(c2ccc(F)cc2)C(C)C)c1=O (stereo not shown) .
Output: 0

Input: Report Wild oats plant response rating under test system wild oat for Cc1nc(Cl)sc1C(C)n1c(=O)on(C(=O)N(c2ccc(F)cc2F)C(C)C)c1=O (stereo not shown) .
Output: 0

Input: Report Wild oats plant response rating under test system wild oat for CC(C)N(C(=O)n1oc(=O)n(CCC(F)(F)F)c1=O)c1ccc(F)cc1 .
Output: 10

Input: Report Wild oats plant response rating under test system wild oat for CC(C)N(C(=O)n1oc(=O)n(C(CF)CF)c1=O)c1ccccc1 .
Output: 10

Input: Report Wild oats plant response rating under test system wild oat for CCOP(=O)(OCC)C(C)n1c(=O)on(C(=O)N(c2ccccc2)C(C)C)c1=O (stereo not shown) .
Output: 0
